Where these numbers come from: ChEMBL document CHEMBL1126667

Target: Cholecystokinin receptor type A (Cavia porcellus)
Test: Displacement of [3H]-pCCK-8 from cholecystokinin-A receptor in guinea pig pancreatic membrane
Type: cell membranes
Non-standard residues stand in square brackets, D forms with d. Residues, ends and D or L forms follow the SMILES beside them. *: point of attachment. NMe1Nal = CN[C@@H](Cc1cccc2ccccc12)C(=O)O; NMeW = CN[C@@H](Cc1c[nH]c2ccccc12)C(=O)O; 1Nal = N[C@@H](Cc1cccc2ccccc12)C(=O)O; 2Nal = N[C@@H](Cc1ccc2ccccc2c1)C(=O)O; Chg = N[C@H](C(=O)O)C1CCCCC1; Phg = N[C@H](C(=O)O)c1ccccc1; Nle = CCCC[C@H](N)C(=O)O; OtBu = CC(C)(C)O*
Outcome Measure: pKi
One number for each entry, as −log10 of the molar value.

// below: answered compounds
Compound: CN(C(=O)[C@@H](NC(=O)[C@H](CC(=O)O)NC(=O)[C@@H](N)Cc1cccc2ccccc12)c1ccccc1)[C@@H](Cc1c[nH]c2ccccc12)C(=O)OC(C)(C)C (H-[1Nal]D[Phg][NMeW]-OtBu)
System: Cholecystokinin receptor type A (Cavia porcellus)
pKi: 6.08
//
Compound: CCCC[C@H](NC(=O)[C@H](CC(=O)O)NC(=O)[C@@H](N)Cc1cccc2ccccc12)C(=O)N(C)[C@@H](Cc1c[nH]c2ccccc12)C(=O)OC(C)(C)C
System: Cholecystokinin receptor type A (Cavia porcellus)
pKi: 5.92
//
Compound: CC(C)(C)OC(=O)[C@H](Cc1c[nH]c2ccccc12)NC(=O)[C@@H](NC(=O)[C@H](CC(=O)O)NC(=O)[C@@H](N)Cc1cccc2ccccc12)C1CCCCC1 (H-[1Nal]D[Chg]W-OtBu)
System: Cholecystokinin receptor type A (Cavia porcellus)
pKi: 5.85
//
Compound: CN(C(=O)[C@H](Cc1ccccc1)NC(=O)[C@H](CC(=O)O)NC(=O)[C@@H](N)Cc1cccc2ccccc12)[C@@H](Cc1c[nH]c2ccccc12)C(=O)OC(C)(C)C (H-[1Nal]DF[NMeW]-OtBu)
System: Cholecystokinin receptor type A (Cavia porcellus)
pKi: 5.46
//
Compound: CCCC[C@H](NC(=O)[C@H](CC(=O)O)NC(=O)[C@@H](N)Cc1cccc2ccccc12)C(=O)N(C)[C@H](Cc1c[nH]c2ccccc12)C(=O)OC(C)(C)C
System: Cholecystokinin receptor type A (Cavia porcellus)
pKi: 5.20

List reported pKi for each of these compounds:
1. CCCC[C@H](NC(=O)[C@H](CC(=O)O)NC(=O)[C@H](Cc1cccc2ccccc12)NC)C(=O)N(C)[C@@H](Cc1c[nH]c2ccccc12)C(=O)OC(C)(C)C (H-[NMe1Nal]D[Nle][NMeW]-OtBu)
2. CCCC[C@H](NC(=O)[C@H](CC(=O)O)NC(=O)[C@@H](N)Cc1ccc2ccccc2c1)C(=O)N(C)[C@@H](Cc1c[nH]c2ccccc12)C(=O)OC(C)(C)C (H-[2Nal]D[Nle][NMeW]-OtBu)
3. CN(C)[C@@H](Cc1cccc2ccccc12)C(=O)N[C@@H](CC(=O)O)C(=O)N[C@H](C(=O)N[C@@H](Cc1c[nH]c2ccccc12)C(=O)OC(C)(C)C)c1ccccc1

# output
1: 5.92; 2: 5.38; 3: 6.00

List reported pKi for each of these compounds:
1. CCCC[C@H](NC(=O)[C@H](CC(=O)O)NC(=O)[C@@H](N)Cc1ccccc1)C(=O)N[C@H](Cc1c[nH]c2ccccc12)C(=O)OC(C)(C)C (stereo in doubt; 13)
2. CCCC[C@H](NC(=O)[C@H](CC(=O)O)NC(=O)[C@H](Cc1cccc2ccccc12)N(C)C)C(=O)N(C)[C@@H](Cc1c[nH]c2ccccc12)C(=O)OC(C)(C)C

# output
[5.96, 6.28]

----------
Biological target: Cholecystokinin receptor type A (Cavia porcellus)
Test: Affinity of compound on binding of [3H]pCCK-8 to the cholecystokinin type A receptor in guinea pig pancreatic membrane
Assay type: cell membranes
Non-standard residues stand in square brackets, D forms with d. Residues, ends and D or L forms follow the SMILES beside them. *: point of attachment. NMeW = CN[C@@H](Cc1c[nH]c2ccccc12)C(=O)O; 1Nal = N[C@@H](Cc1cccc2ccccc12)C(=O)O; Chg = N[C@H](C(=O)O)C1CCCCC1; OtBu = CC(C)(C)O*
Outcome Measure: pKi
One number for each entry, as −log10 of the molar value.

// below: answered compounds
Compound: CN(C(=O)[C@H](Cc1ccccc1)NC(=O)[C@H](CC(=O)O)NC(=O)[C@@H](N)Cc1ccccc1)[C@@H](Cc1c[nH]c2ccccc12)C(=O)OC(C)(C)C
pKi: 5.49

Compound: CN(C(=O)[C@@H](NC(=O)[C@H](CC(=O)O)NC(=O)[C@@H](N)Cc1cccc2ccccc12)C1CCCCC1)[C@@H](Cc1c[nH]c2ccccc12)C(=O)OC(C)(C)C (H-[1Nal]D[Chg][NMeW]-OtBu)
pKi: 5.68

// moving on: another record for pKi
# input What does the record list as pKi for CN(C(=O)[C@H](Cc1ccccc1)NC(=O)[C@H](CC(=O)O)NC(=O)[C@@H](N)Cc1ccccc1)[C@H](Cc1c[nH]c2ccccc12)C(=O)OC(C)(C)C ?
# output 5.10

----------
Target: Cholecystokinin receptor type A (Cavia porcellus, UniProt Q63931)
Sequence (Q63931 whole entry): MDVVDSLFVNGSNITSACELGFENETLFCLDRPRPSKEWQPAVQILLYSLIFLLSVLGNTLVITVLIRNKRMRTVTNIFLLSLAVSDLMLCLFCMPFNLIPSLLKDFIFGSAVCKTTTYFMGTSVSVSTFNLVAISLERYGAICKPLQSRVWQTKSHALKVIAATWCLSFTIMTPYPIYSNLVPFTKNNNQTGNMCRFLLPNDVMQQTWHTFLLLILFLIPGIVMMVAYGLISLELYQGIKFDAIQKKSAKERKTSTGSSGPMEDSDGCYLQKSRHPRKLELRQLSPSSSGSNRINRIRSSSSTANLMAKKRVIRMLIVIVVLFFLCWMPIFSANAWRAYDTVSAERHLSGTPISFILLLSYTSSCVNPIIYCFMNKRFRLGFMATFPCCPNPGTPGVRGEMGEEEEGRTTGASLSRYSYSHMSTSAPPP
Assay: Displacement of [3H]-pCCK-8 from cholecystokinin-A receptor in guinea pig pancreatic membrane
Type: cell membranes
Non-standard residues stand in square brackets, D forms with d. Residues, ends and D or L forms follow the SMILES beside them. *: point of attachment. 1Nal = N[C@@H](Cc1cccc2ccccc12)C(=O)O; Phg = N[C@H](C(=O)O)c1ccccc1; OtBu = CC(C)(C)O*
Give Ki for every item shown.
One number for each entry, in µM.

Compound: CC(C)(C)OC(=O)[C@H](Cc1c[nH]c2ccccc12)NC(=O)[C@H](Cc1ccccc1)NC(=O)[C@H](CC(=O)O)NC(=O)[C@@H](N)Cc1cccc2ccccc12 (H-[1Nal]DFW-OtBu)
Unit: µM
Ki: 2.4

Compound: CN(C)[C@@H](Cc1cccc2ccccc12)C(=O)N[C@@H](CC(=O)O)C(=O)N[C@H](C(=O)N[C@@H](Cc1c[nH]c2ccccc12)C(=O)OC(C)(C)C)C1CCCCC1
Unit: µM
Ki: 5.4

# input What does the record list as Ki for CC(C)(C)OC(=O)[C@H](Cc1c[nH]c2ccccc12)NC(=O)[C@@H](NC(=O)[C@H](CC(=O)O)NC(=O)[C@@H](N)Cc1cccc2ccccc12)c1ccccc1 (H-[1Nal]D[Phg]W-OtBu) ?
# output 0.99
